The measurements presented in this section are drawn from patent US20180230213A1.

targetOfAssay: T1, monomeric recombinant cynomologus monkey Notch3 extracellular domain (containing EGF like domains 1-12) … (cynomologus monkey)
T1 construct: domain: EGF like domains 1-12; also called monomeric rcNotch3
measurementNotes: SPR BIAcore T100, antibody captured by anti-human IgG Fc, monomeric rcNotch3 analyte, 37 C
Please go through the items and note down their kon.
# include the unit after the value

Prompt line: Identify kon associated with the binder Hu4F11-74 (antibody, human IgG1, kappa, V domains shown, Humanized, human IgG1 kappa; Hv3-23 A28T S31H T62S heavy + Kv2D-29 N28Y kappa) VH: EVQLLESGGGLVQPGGSLRLSCAASGFTFSHYDMSWVRQAPGKGLEWVSYISRGGGSTYYPDSVKGRFTISRDNSKNTLYLQMNSLRAEDTAVYYCGRHATTAYWYFDVWGQGTMVTVSS VL: DVVMTQTPLSLSVTPGQPASISCRSSQSLVHTYGNTYLHWYLQKPGQSPQLLIYKVSNRFSGVPDRFSGSGSGTDFTLKISRVEAEDVGVYFCSQSTHVPWTFGQGTKVEIKR
Response line: 440000 M⁻¹ s⁻¹

Prompt line: Identify kon associated with the binder Hu4F11-80 (antibody, human IgG1, kappa, V domains shown, Humanized, human IgG1 kappa; Hv3-23 S31H T62S heavy + Kv2D-29 N28Q kappa) VH: EVQLLESGGGLVQPGGSLRLSCAASGFAFSHYDMSWVRQAPGKGLEWVSYISRGGGSTYYPDSVKGRFTISRDNSKNTLYLQMNSLRAEDTAVYYCGRHATTAYWYFDVWGQGTMVTVSS VL: DVVMTQTPLSLSVTPGQPASISCRSSQSLVHTQGNTYLHWYLQKPGQSPQLLIYKVSNRFSGVPDRFSGSGSGTDFTLKISRVEAEDVGVYFCSQSTHVPWTFGQGTKVEIKR
Response line: 910000 M⁻¹ s⁻¹
